Listed next: entries and their corresponding apparent KD of MS2 coat protein.
system: MS2 coat protein; test: apparent KD of MS2 coat protein; designed switch direction (-1 OFF switch, 1 ON switch): -1; higher = weaker reporter binding; details: input ligand: none
Write down the numeric answer in µM and omit the unit.

Solved cases below.
ORDERED RESIDUES: CAAUAACAAGCGAGAUCCUACAUGAGGAUCACCCAUGUGCUCGUCUUAAAAGGUACUGUGACGAUAGUCACGGUACC [Mat - Sensor, turn-off var - Eli Mod - D98] (Eterna round: R97, puzzle: Sensor, turn-off variant 1)
NUMERIC READOUT: 0.0179
//
ORDERED RESIDUES: GCGUGAAGGCAGGAUAUAAGAAAAGAAAGAAAAUUAGAAGGGCCGACAUGAGGAUCACCCAUGUGGGCAUGAUC [Xeorusza] (Eterna round: R97, puzzle: Exclusion 6)
NUMERIC READOUT: 0.0159
//
ORDERED RESIDUES: GGAACUGGAGGAUAUACAUGAGGAUCACCCAUGUAUAGAUAUGGUUAUUAGCCUCAUAGUAGAAGGUUAGUGGC [EX3 C.4] (Eterna round: R97, puzzle: Exclusion 3)
NUMERIC READOUT: 0.0201
//
ORDERED RESIDUES: UUACAGCAAGGAUAUACAUGAGGAUCACCCAUGUAUGCAUGUUCGAGAGAGGCCUACGGUAGAAGGUGCAUGUU [EX3 C.11] (Eterna round: R97, puzzle: Exclusion 3)
NUMERIC READOUT: 0.0398

Documented apparent KD of MS2 coat protein of UUGAAUUAACAGGAUAUGGGAGUCGAUAGACACCCAGAAGGGUUAACAUGAGGAUCACCCAUGUGUCCUAUCAA [Mod of Eli 23 - Jieux - Exclusion 6] (Eterna round: R97, puzzle: Exclusion 6) : 0.0365

====

tested on: MS2 coat protein; experiment: apparent KD of MS2 coat protein; designed switch direction (-1 OFF switch, 1 ON switch): -1; higher = weaker reporter binding; settings: Eterna round: R95; input ligand: none
Listed next: entries and their corresponding apparent KD of MS2 coat protein.
Write down the numeric answer in nM and omit the unit.

Solved cases below.
ORDERED RESIDUES: CGUUGGCGAGGAUAUACAUGAGGAUCACCCAUGUGAGAGAAAAAAGUGAGGAAGAAAAGUAGAAGGCGCUGACC [salish99_ex3_r3_049] (puzzle: Exclusion 3)
U: nM
NUMERIC READOUT: 45.9
//
ORDERED RESIDUES: CCAUCGUGUGUGAGGAUAUGCUGGUCCUUGGAUCAGCAGAAGGCACAUGAGGAUCACCCAUGUGAAGACGGUGG [JL bmx4 3.22] (puzzle: Brourd's mod of Exclusion 4)
U: nM
NUMERIC READOUT: 24.2
//
ORDERED RESIDUES: UAUUAACAAGCAAGAUCCCACAUGAGGAUCACCCAUGUGCUCGUCUUGUAAGGUACUGUGACGAAAGUCACGGUACC [Sensor 3, v1 - 84] (puzzle: Sensor v3, turn-off variant 1)
U: nM
NUMERIC READOUT: 13.4
//
ORDERED RESIDUES: CAGUACUACAAGCUAAGGGACAUGAGGAUCACCCAUGUUCGUCUUAUUGAUCUAGGUACGCUGACGUACCUAGAUCU [JL-sv1-2.18 Brourd mod] (puzzle: Sensor v3, turn-off variant 1)
U: nM
NUMERIC READOUT: 13.8

Please look at the following sequence next.
Measured apparent KD of MS2 coat protein for this entry CUUAGACAUGAGGAUCACCCAUGUGAGGAUAUGAAAUUAAUUAAUUAUUAAGUAUGAAUCAGAAGGCACAUAUG [Mat - Mod of Hyphema D36] (puzzle: Exclusion 1) on MS2 coat protein: 78.9

====

tested on: MS2 coat protein; assay: apparent KD of MS2 coat protein; designed switch direction (-1 OFF switch, 1 ON switch): 1; higher = weaker reporter binding; conditions: Eterna round: R95; input ligand: FMN 200 uM
Assign class by apparent KD of MS2 coat protein: not lower than 0.4 µM means MET; lower than 0.4 µM means NOT MET.

ORDERED RESIDUES: AGUGCAGCCUGAGCUGCACAAAAGCAUGUACAUGAGGAUCACCCAUGUCAUGUACAAGCUUUUUGCUCGUCUUAAAA [Mat - hsa-mir-208a - Mod of JL - D20] (puzzle: Sensor for hsa-mir-208a)
EXPERIMENTAL SYSTEM: MS2 coat protein
CLASS: MET

ORDERED RESIDUES: AGCUUACAUGAGGAUCACCCAUGUUUUAGCCAGACAGGAUAUGGGUAUCUAAAACACAACCCAGAAGGGUCAAAAC [Usveriri] (puzzle: Same State 1)
EXPERIMENTAL SYSTEM: MS2 coat protein
CLASS: NOT MET

ORDERED RESIDUES: UGGAUCUAGGCUUGCCUGGGUCCAUGCUGACAUGAGGAUCACCCAUGUGCAUUCUAUAAGCUUUUUGUUUGUCAGCU (puzzle: Sensor for hsa-mir-208a)
EXPERIMENTAL SYSTEM: MS2 coat protein
CLASS: NOT MET

ORDERED RESIDUES: UGCAUACAUGAGGAUCACCCAUGUCAACGUAGUCGAGGAUAUGGGCAGCCGUGAGGCGUACCAGAAGGCGAAGAGG [JL-ss1-3.04 ViennaUCT mod] (puzzle: Same State 1)
EXPERIMENTAL SYSTEM: MS2 coat protein
CLASS: NOT MET

Query: Would you say UUCCACGUUGCACAGGAUAUCCAAGCCGUGACAUGAGGAUCACCCAUGUCUAGUAGGCGACUAAGGGAGAAGGGUGUUGUCGUGC [Biuser] (puzzle: Same State 2) shows apparent KD of MS2 coat protein at minimum 0.4 µM?
Result: NOT MET

====

tested on: MS2 coat protein; assay: apparent KD of MS2 coat protein; designed switch direction (-1 OFF switch, 1 ON switch): 1; higher = weaker reporter binding; settings: input ligand: microRNA oligo, concentration not stated
Listed next: entries and their corresponding apparent KD of MS2 coat protein.
Write down the numeric answer in nM and omit the unit.

Solved cases below.
ORDERED RESIDUES: GUUACAUGAGGAUCACCCAUGUAUGUGUGGGAGUAAGUGUCUUAGGAUAUCUGUUAUUAAAUUUAAGAGAAGGAAGAUUGUUGU [JMF's solution 36] (Eterna round: R96, puzzle: Same State NG 3)
U: nM
NUMERIC READOUT: 64.1
--
ORDERED RESIDUES: CGCCAGAGAACAGGAUAUGGGCCGCGGCCUAUGGGCUGCUAACUCACAUGAGGAUCACCCAUGUCCCAGAAGGGUUCCUGGCGG [Xediat] (Eterna round: R96, puzzle: Same State NG 2)
U: nM
NUMERIC READOUT: 23.1
--
ORDERED RESIDUES: GGAAACAAGAGAGGAUAUGCAGAGGAUCACCCUGCAGAAGGCUCCCUAGAGAGGAUAUGCAGAGGAUCACCCUGCAGAAGGCUC [pwkr ssNG DX.25] (Eterna round: R96, puzzle: Same State NG 1)
U: nM
NUMERIC READOUT: 9.9
--
ORDERED RESIDUES: CUUUAUCACUAUACAUGAGGAUCACCCAUGUUAUCAUCAUGAGAGGAUAUCGUAAUAGGAUUUUUCGAGAAGGCUCUAAAGUAU [JR_SSNG3_Sub078] (Eterna round: R96, puzzle: Same State NG 3)
U: nM
NUMERIC READOUT: 167

Documented apparent KD of MS2 coat protein of GGACGUCGAUUUCCUACUUAAACAUGAGGAUCACCCAUGUCACAGGAUAUGAGUCCGAUUAGGACUCAGAAGGGUGCGACGUCC [Fiskers NG3ss - 52] (Eterna round: R96, puzzle: Same State NG 3) : 11.1

====

tested on: MS2 coat protein; assay: apparent KD of MS2 coat protein; designed switch direction (-1 OFF switch, 1 ON switch): -1; higher = weaker reporter binding; conditions: input ligand: FMN 200 uM
Listed next: entries and their corresponding apparent KD of MS2 coat protein.
Write down the numeric answer in nM and omit the unit.

ORDERED RESIDUES: GUAUAACAUGUAGGAUAUGCGUGGCGAAGCUAUGCAGAAGGACAUGAGGAUCACCCAUGUUAUAGCGUCUGCGUACAGAUGCUA [Mat - Exclusion NG 1 - Mod of JL - D93] (Eterna round: R96, puzzle: Exclusion NG 1)
U: nM
apparent KD of MS2 coat protein: 204

Documented apparent KD of MS2 coat protein of CAGCUGAAAGUGAGGAUAUAGACUGCCUCGGCAGUCUAGAAGGCACAUGAGGAUCACCCAUGUCUCAACAGCUG [BmEx4/1-B2] (Eterna round: R97, puzzle: Brourd's mod of Exclusion 4) : 70.2
